Measured pIC50 values are reported for all entries that follow.
Target: Sodium-dependent dopamine transporter (Homo sapiens)
Sequence (Q01959 whole entry): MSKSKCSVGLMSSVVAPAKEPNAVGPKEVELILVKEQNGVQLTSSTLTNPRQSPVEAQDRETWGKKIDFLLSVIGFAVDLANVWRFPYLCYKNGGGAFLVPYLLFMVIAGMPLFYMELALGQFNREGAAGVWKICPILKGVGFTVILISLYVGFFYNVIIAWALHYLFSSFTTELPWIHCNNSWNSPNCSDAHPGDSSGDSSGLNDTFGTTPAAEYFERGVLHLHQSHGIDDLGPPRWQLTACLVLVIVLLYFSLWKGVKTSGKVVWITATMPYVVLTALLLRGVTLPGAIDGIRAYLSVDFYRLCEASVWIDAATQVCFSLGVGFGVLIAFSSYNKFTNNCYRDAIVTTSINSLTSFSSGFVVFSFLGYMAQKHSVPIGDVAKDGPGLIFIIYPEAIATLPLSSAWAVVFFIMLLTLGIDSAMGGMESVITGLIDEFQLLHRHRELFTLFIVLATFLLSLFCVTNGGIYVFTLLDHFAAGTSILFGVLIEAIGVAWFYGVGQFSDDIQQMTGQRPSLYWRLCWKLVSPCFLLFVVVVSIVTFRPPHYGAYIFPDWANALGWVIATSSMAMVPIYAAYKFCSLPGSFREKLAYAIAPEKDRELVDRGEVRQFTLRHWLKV
Experiment: Inhibition of [3H]dopamine reuptake at human DAT expressed in HEK293 cells
pIC50: −log10 of the molar value.

[
  {
    "compound": "CC(C)CC(NC(C)(C)C)C(=O)c1cccc(Cl)c1 (configuration not stated)",
    "study target": "Sodium-dependent dopamine transporter (Homo sapiens)",
    "lt gt eq": "=",
    "pIC50": 6.36
  },
  {
    "compound": "CC(C)(C)NC(CCC1CCCCC1)C(=O)c1cccc(Cl)c1 (configuration not stated)",
    "study target": "Sodium-dependent dopamine transporter (Homo sapiens)",
    "lt gt eq": "<",
    "pIC50": 5.00
  }
]

----------
Measured Activity values are reported for all entries that follow.
System: Rattus norvegicus
Assay: Effect on behavioural activity in rat assessed as cocaine-induced lever response at 10 mg/kg, po pretreated with cocaine for 360 mins by drug-discrimination studies
Assay type: functional
readout: Activity

[
  {
    "molecule": "CC(NC1CC1)C(=O)c1cccc(Cl)c1 (stereo not given)",
    "result": "0%"
  },
  {
    "molecule": "CCCCC(NC(C)(C)C)C(=O)c1cccc(Cl)c1 (stereo not given)",
    "result": "0%"
  },
  {
    "molecule": "CC(C(=O)c1cccc(Cl)c1)N(C)C (stereo not given)",
    "result": "18%"
  },
  {
    "molecule": "CCC(NC(C)(C)C)C(=O)c1ccc(Cl)c(Cl)c1 (stereo not given)",
    "result": "2%"
  },
  {
    "molecule": "CCCC(NC(C)(C)C)C(=O)c1ccc(Cl)c(Cl)c1 (stereo not given)",
    "result": "0%"
  },
  {
    "molecule": "CC(NC(C)(C)C)C(=O)c1cc(F)cc(F)c1 (stereo not given)",
    "result": "3%"
  },
  {
    "molecule": "CC(NC(C)(C)C)C(=O)c1ccccc1 (stereo not given)",
    "result": "0%"
  },
  {
    "molecule": "CC(NC(C)(C)C)C(=O)c1cccc(Cl)c1 (stereo not given)",
    "result": "0%"
  },
  {
    "molecule": "CC(NC(C)(C)C)C(=O)c1cccc(Br)c1 (stereo not given)",
    "result": "0%"
  },
  {
    "molecule": "CCCC(NC(C)(C)C)C(=O)c1cccc(Cl)c1 (stereo not given)",
    "result": "0%"
  }
]

----------
Biological target: Sodium-dependent serotonin transporter (Homo sapiens, UniProt P31645)
Sequence (P31645 whole entry): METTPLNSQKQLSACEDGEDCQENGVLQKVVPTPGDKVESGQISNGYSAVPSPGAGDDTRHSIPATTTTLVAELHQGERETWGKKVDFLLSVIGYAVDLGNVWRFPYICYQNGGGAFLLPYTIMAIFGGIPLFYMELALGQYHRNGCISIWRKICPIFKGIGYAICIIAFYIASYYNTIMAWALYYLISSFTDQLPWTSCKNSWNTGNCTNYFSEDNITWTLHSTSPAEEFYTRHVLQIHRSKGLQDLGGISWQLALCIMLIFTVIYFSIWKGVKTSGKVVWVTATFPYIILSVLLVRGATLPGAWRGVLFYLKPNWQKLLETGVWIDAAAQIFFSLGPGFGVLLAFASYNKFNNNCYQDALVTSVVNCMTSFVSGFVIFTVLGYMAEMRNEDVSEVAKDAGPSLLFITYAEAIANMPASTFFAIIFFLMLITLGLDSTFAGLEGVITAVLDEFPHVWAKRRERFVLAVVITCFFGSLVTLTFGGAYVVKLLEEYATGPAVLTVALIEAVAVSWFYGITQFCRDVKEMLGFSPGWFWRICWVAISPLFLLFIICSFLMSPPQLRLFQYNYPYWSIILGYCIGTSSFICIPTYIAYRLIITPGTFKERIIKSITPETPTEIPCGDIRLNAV
Assay: Inhibition of [3H]serotonin reuptake at human SERT expressed in HEK293 cells
pIC50: −log10 of the molar value.
Measured pIC50 values are reported for all entries that follow.
readout: pIC50

[
  {
    "compound": "CC(NC(C)(C)C)C(=O)c1ccc(Cl)c(Cl)c1 (centres undefined)",
    "readout": "pIC50",
    "result": "< 5.00"
  },
  {
    "compound": "CC(NC(C)(C)C)C(O)c1ccccc1 (racemic)",
    "readout": "pIC50",
    "result": 5.91
  },
  {
    "compound": "CC(C)CC(NC(C)(C)C)C(=O)c1cccc(Cl)c1 (centres undefined)",
    "readout": "pIC50",
    "result": "< 5.00"
  },
  {
    "compound": "CC(C)(C)NC(CCC1CCCCC1)C(=O)c1cccc(Cl)c1 (centres undefined)",
    "readout": "pIC50",
    "result": "< 5.00"
  }
]
